target of assay: human Factor IXa (human, UniProt P00740 47-191; P00740 227-461)
measurement description: cell-based or functional assay
Ends that are not written are not given here.
The reader will find reported EC50 [µM], FXa generation assay values listed item by item below.

binder: RRAPGCLTALASYAWLCWTGIA-NH2 (cysteine pairing not given here) [RRAPGCLTALASYAWLCWTGIA-CONH2]
EC50 [µM], FXa generation assay: > 1 µM

binder: KLTALASYCWLF
EC50 [µM], FXa generation assay: > 1 µM

binder: PRIRTVGPGSRSASGKSTCLASYCWLFWTGIA
EC50 [µM], FXa generation assay: < 0.5 µM

Cited source for all entries: patent US20140303084A1
